Reference for the values: ChEMBL document CHEMBL5357047

# Tested on: Klebsiella pneumoniae
# protocol_details: Antibacterial activity against clinically isolated Klebsiella pneumoniae RBRJ024 assessed as inhibition of bacterial growth at 50 uM measured after 48 hrs by agar well diffusion method
# Format: functional
# condition_info: read-out: IZ
zone of inhibition at 50 µM reference
measure_name: zone of inhibition at 50 µM (mm)

INSERT INTO results (substance_smiles, reported_measurement) VALUES
  ('Cc1ccc(C(C)C)c(OCc2cn(CCCCN3C(=O)C(=O)c4ccccc43)nn2)c1', 15.6),
  ('Cc1ccc(C(C)C)c(OCc2cn(CCN3C(=O)C(=O)c4cc(F)ccc43)nn2)c1', 13.2),
  ('Cc1ccc(C(C)C)c(OCc2cn(CCCN3C(=O)C(=O)c4cc(F)ccc43)nn2)c1', 14.3),
  ('Cc1ccc(C(C)C)c(OCc2cn(CCCCN3C(=O)C(=O)c4cc(I)ccc43)nn2)c1', 10.1),
  ('Cc1ccc(C(C)C)c(OCc2cn(CCN3C(=O)C(=O)c4cc(Br)ccc43)nn2)c1', 12.3),
  ('Cc1ccc(C(C)C)c(OCc2cn(CCCN3C(=O)C(=O)c4ccccc43)nn2)c1', 21.2),
  ('COc1ccc2c(c1)C(=O)C(=O)N2CCCCn1cc(COc2cc(C)ccc2C(C)C)nn1', 11.3);

###

pKi: −log10 of the molar value.
Read-out record for 4,4'-diapophytoene synthase (Staphylococcus aureus, UniProt A9JQL9): pKi
measure_name: pKi

INSERT INTO results (molecule, reported_measurement) VALUES
  ('O=P(O)(O)C(CCCc1ccc(-c2ccccc2)cc1)P(=O)(O)O', 9.70),
  ('O=P(O)(O)C(CCCc1ccc(-c2ccc(Br)cc2)cc1)S(=O)(=O)O (stereo not drawn)', 6.87),
  ('O=P(O)(O)C(CCCc1ccc(-c2ccccc2)cc1)S(=O)(=O)O (stereo not drawn)', 8.22);

###

# Tested on: Staphylococcus aureus
# protocol_details: Antibacterial activity against clinically isolated Methicillin-resistant Staphylococcus aureus assessed as inhibition of bacterial growth measured after 48 hrs by broth microdilution method
# Format: functional
measure_name: MIC (µM)

INSERT INTO results (substance_smiles, reported_measurement) VALUES
  ('Cc1ccc(C(C)C)c(OCc2cn(CCCN3C(=O)C(=O)c4cc(Cl)ccc43)nn2)c1', 31.2),
  ('COc1ccc2c(c1)C(=O)C(=O)N2CCCn1cc(COc2cc(C)ccc2C(C)C)nn1', 3.9),
  ('Cc1ccc(C(C)C)c(OCc2cn(CCCN3C(=O)C(=O)c4cc(C)ccc43)nn2)c1', 3.9),
  ('Cc1ccc(C(C)C)c(OCc2cn(CCCN3C(=O)C(=O)c4ccccc43)nn2)c1', 1.9),
  ('Cc1ccc(C(C)C)c(OCc2cn(CCN3C(=O)C(=O)c4ccccc43)nn2)c1', 62.5),
  ('Cc1ccc(C(C)C)c(OCc2cn(CCCN3C(=O)C(=O)c4cc(Br)ccc43)nn2)c1', 31.2),
  ('Cc1ccc(C(C)C)c(OCc2cn(CCCN3C(=O)C(=O)c4cc(F)ccc43)nn2)c1', 15.6),
  ('Cc1ccc(C(C)C)c(OCc2cn(CCCN3C(=O)C(=O)c4cc(I)ccc43)nn2)c1', 62.5);

###

# Test system: Escherichia coli
# protocol_details: Antibacterial activity against Escherichia coli MTCC 119 assessed as inhibition of bacterial growth at 50 uM measured after 48 hrs by agar well diffusion method
# Format: functional
# condition_info: read-out: IZ
Label n if zone of inhibition at 50 µM falls below 20 mm; label y in every other case.

INSERT INTO assay_data (molecule, classification) VALUES
  ('Cc1ccc(C(C)C)c(OCc2cn(CCN3C(=O)C(=O)c4cc(I)ccc43)nn2)c1', 'n'),
  ('Cc1ccc(C(C)C)c(OCc2cn(CCCN3C(=O)C(=O)c4ccccc43)nn2)c1', 'y'),
  ('COc1ccc2c(c1)C(=O)C(=O)N2CCn1cc(COc2cc(C)ccc2C(C)C)nn1', 'n'),
  ('O=C(O)c1cn(C2CC2)c2cc(N3CCNCC3)c(F)cc2c1=O [CIPROFLOXACIN]', 'n'),
  ('Cc1ccc(C(C)C)c(OCc2cn(CCN3C(=O)C(=O)c4cc(C)ccc43)nn2)c1', 'n');

###

// reported zone of inhibition at 50 µM per item
# Tested on: Acinetobacter baumannii
# protocol_details: Antibacterial activity against clinically isolated Acinetobacter baumannii RBRJ027 assessed as inhibition of bacterial growth at 50 uM measured after 48 hrs by agar well diffusion method
# Format: functional
# condition_info: read-out: IZ
measure_name: zone of inhibition at 50 µM (mm)

INSERT INTO measurements (substance_smiles, scale_unit, reported_measurement) VALUES
  ('COc1ccc2c(c1)C(=O)C(=O)N2CCCn1cc(COc2cc(C)ccc2C(C)C)nn1', 'mm', 12.3),
  ('Cc1ccc(C(C)C)c(OCc2cn(CCCCN3C(=O)C(=O)c4cc(C)ccc43)nn2)c1', 'mm', 10.4),
  ('Cc1ccc(C(C)C)c(OCc2cn(CCN3C(=O)C(=O)c4cc(Br)ccc43)nn2)c1', 'mm', 12.5),
  ('Cc1ccc(C(C)C)c(OCc2cn(CCCN3C(=O)C(=O)c4cc(Cl)ccc43)nn2)c1', 'mm', 13.2),
  ('Cc1ccc(C(C)C)c(OCc2cn(CCN3C(=O)C(=O)c4cc(F)ccc43)nn2)c1', 'mm', 11.9);

###

# Tested on: Enterobacter cloacae
# protocol_details: Antibacterial activity against clinically isolated Enterobacter cloacae RBRJ017 assessed as inhibition of bacterial growth at 50 uM measured after 48 hrs by agar well diffusion method
# Format: functional
# condition_info: read-out: IZ
measure_name: zone of inhibition at 50 µM (mm)

INSERT INTO results (substance_smiles, scale_unit, reported_measurement) VALUES
  ('Cc1ccc(C(C)C)c(OCc2cn(CCCN3C(=O)C(=O)c4cc(Br)ccc43)nn2)c1', 'mm', 14.2),
  ('Cc1ccc(C(C)C)c(OCc2cn(CCCCN3C(=O)C(=O)c4cc(Br)ccc43)nn2)c1', 'mm', 11.1),
  ('Cc1ccc(C(C)C)c(OCc2cn(CCN3C(=O)C(=O)c4cc(Cl)ccc43)nn2)c1', 'mm', 14.2),
  ('Cc1ccc(C(C)C)c(OCc2cn(CCN3C(=O)C(=O)c4ccccc43)nn2)c1', 'mm', 16.5),
  ('Cc1ccc(C(C)C)c(OCc2cn(CCCCN3C(=O)C(=O)c4cc(C)ccc43)nn2)c1', 'mm', 11.6),
  ('COc1ccc2c(c1)C(=O)C(=O)N2CCCn1cc(COc2cc(C)ccc2C(C)C)nn1', 'mm', 13.5),
  ('Cc1ccc(C(C)C)c(OCc2cn(CCCN3C(=O)C(=O)c4cc(I)ccc43)nn2)c1', 'mm', 13.7);

###

# Tested on: Pseudomonas aeruginosa
# protocol_details: Antibacterial activity against Pseudomonas aeruginosa MTCC 424 assessed as inhibition of bacterial growth at 50 uM measured after 48 hrs by agar well diffusion method
# Type: functional
# condition_info: read-out: IZ
measure_name: zone of inhibition at 50 µM (mm)

INSERT INTO measurements (substance_smiles, measure_name, scale_unit, reported_measurement) VALUES
  ('Cc1ccc(C(C)C)c(OCc2cn(CCN3C(=O)C(=O)c4cc(Br)ccc43)nn2)c1', 'zone of inhibition at 50 µM', 'mm', 14),
  ('Cc1ccc(C(C)C)c(OCc2cn(CCCN3C(=O)C(=O)c4cc(C)ccc43)nn2)c1', 'zone of inhibition at 50 µM', 'mm', 19.5),
  ('COc1ccc2c(c1)C(=O)C(=O)N2CCn1cc(COc2cc(C)ccc2C(C)C)nn1', 'zone of inhibition at 50 µM', 'mm', 11.5),
  ('O=C(O)c1cn(C2CC2)c2cc(N3CCNCC3)c(F)cc2c1=O', 'zone of inhibition at 50 µM', 'mm', 24.2),
  ('Cc1ccc(C(C)C)c(OCc2cn(CCCN3C(=O)C(=O)c4cc(Cl)ccc43)nn2)c1', 'zone of inhibition at 50 µM', 'mm', 13.3),
  ('Cc1ccc(C(C)C)c(OCc2cn(CCCN3C(=O)C(=O)c4cc(F)ccc43)nn2)c1', 'zone of inhibition at 50 µM', 'mm', 16),
  ('Cc1ccc(C(C)C)c(OCc2cn(CCCN3C(=O)C(=O)c4cc(Br)ccc43)nn2)c1', 'zone of inhibition at 50 µM', 'mm', 11.4),
  ('COc1ccc2c(c1)C(=O)C(=O)N2CCCCn1cc(COc2cc(C)ccc2C(C)C)nn1', 'zone of inhibition at 50 µM', 'mm', 11.3),
  ('Cc1ccc(C(C)C)c(OCc2cn(CCCN3C(=O)C(=O)c4ccccc43)nn2)c1', 'zone of inhibition at 50 µM', 'mm', 22.3),
  ('Cc1ccc(C(C)C)c(OCc2cn(CCN3C(=O)C(=O)c4cc(F)ccc43)nn2)c1', 'zone of inhibition at 50 µM', 'mm', 14.2),
  ('Cc1ccc(C(C)C)c(OCc2cn(CCCCN3C(=O)C(=O)c4cc(Cl)ccc43)nn2)c1', 'zone of inhibition at 50 µM', 'mm', 12.4),
  ('Cc1ccc(C(C)C)c(OCc2cn(CCN3C(=O)C(=O)c4cc(C)ccc43)nn2)c1', 'zone of inhibition at 50 µM', 'mm', 11.3),
  ('Cc1ccc(C(C)C)c(OCc2cn(CCCCN3C(=O)C(=O)c4cc(C)ccc43)nn2)c1', 'zone of inhibition at 50 µM', 'mm', 12.9),
  ('Cc1ccc(C(C)C)c(OCc2cn(CCN3C(=O)C(=O)c4ccccc43)nn2)c1', 'zone of inhibition at 50 µM', 'mm', 18.2),
  ('Cc1ccc(C(C)C)c(OCc2cn(CCCCN3C(=O)C(=O)c4ccccc43)nn2)c1', 'zone of inhibition at 50 µM', 'mm', 13.7);
